Settings: mouse, in vivo, 150 mg/kg
observable: Kidney BUN (mg/dL)
Return type: number; implicit unit mg/dL.

Task item: Check the records and state Kidney BUN for CN(C)C(=N)N=C(N)N [Metformin, metformin, reference compound]
Reply: 22

* * *

Molecular target: mitochondrial complex I (Homo sapiens, UniProt O75251+O75306+P03886)
Sequence (P03886 whole entry): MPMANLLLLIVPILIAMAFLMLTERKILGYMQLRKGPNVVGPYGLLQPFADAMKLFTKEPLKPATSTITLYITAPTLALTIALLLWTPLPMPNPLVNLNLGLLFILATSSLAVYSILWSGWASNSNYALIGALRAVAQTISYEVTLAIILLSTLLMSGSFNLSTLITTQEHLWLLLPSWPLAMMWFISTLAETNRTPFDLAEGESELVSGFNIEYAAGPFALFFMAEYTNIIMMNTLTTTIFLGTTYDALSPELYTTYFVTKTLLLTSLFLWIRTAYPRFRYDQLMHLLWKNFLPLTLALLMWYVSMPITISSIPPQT
Sequence (O75251 39-213): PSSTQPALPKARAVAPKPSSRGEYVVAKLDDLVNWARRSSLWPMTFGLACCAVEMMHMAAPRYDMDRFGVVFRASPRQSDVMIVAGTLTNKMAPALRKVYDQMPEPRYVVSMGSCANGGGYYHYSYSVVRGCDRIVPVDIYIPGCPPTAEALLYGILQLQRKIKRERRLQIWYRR
Sequence (P03897 whole entry, further chain): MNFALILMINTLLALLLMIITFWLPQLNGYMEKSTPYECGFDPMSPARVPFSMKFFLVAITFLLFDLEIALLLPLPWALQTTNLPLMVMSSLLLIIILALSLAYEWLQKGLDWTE
Sequence (O75306 34-463): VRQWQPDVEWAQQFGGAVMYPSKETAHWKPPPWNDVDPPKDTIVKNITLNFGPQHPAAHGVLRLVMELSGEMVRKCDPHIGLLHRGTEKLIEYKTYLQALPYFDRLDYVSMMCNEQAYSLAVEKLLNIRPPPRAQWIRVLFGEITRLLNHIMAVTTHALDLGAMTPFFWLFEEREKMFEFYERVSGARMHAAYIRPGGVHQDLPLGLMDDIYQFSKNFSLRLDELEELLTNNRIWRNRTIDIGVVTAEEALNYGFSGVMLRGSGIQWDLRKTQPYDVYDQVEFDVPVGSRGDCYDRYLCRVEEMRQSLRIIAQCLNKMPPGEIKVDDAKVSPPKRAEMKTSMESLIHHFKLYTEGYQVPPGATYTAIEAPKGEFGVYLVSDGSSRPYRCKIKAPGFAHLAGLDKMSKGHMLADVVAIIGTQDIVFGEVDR
Sequence (O75489 37-264, further chain): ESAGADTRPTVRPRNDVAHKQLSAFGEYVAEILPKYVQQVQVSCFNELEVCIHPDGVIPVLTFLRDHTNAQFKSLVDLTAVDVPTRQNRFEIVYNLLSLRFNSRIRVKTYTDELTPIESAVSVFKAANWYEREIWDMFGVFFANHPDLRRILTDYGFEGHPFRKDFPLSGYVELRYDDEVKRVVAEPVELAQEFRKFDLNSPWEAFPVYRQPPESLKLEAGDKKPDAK
Assay: Complex I oxygen consumption (pyruvate/malate) in permeabilized cells, Seahorse XF96
Format: cell-based
Parameters: IC50, complex I oxygen consumption; other: permeabilized MiaPaCa-2, added acutely
Conditions: read-out: IC50, complex I oxygen consumption; permeabilized MiaPaCa-2, compound added acutely (FIG. 20C)
observable: pIC50
Schema: pIC50 number; meaning minus log10 of the concentration expressed in molar units.

Task item: Give the reported value of pIC50 for this record: Br.N=C(N)NC(=N)NCCCCCCCCCC[P+](c1ccccc1)(c1ccccc1)c1ccccc1
Reply: 5.70
